These measurements were taken from a melting point compilation (Tetko et al.; mined from patent text by program, amines drawn as free bases though some values may be those of a salt).

This section presents molecules with their documented melting point values.

Here is how some molecules turned out for melting point.
Cc1ccc(NS(=O)(=O)c2ccc(N3CCNC3=O)cc2)c(C)c1 | 238 to 239 °C
CN1CCN(C2=Nc3cc(Br)ccc3Nc3nn(C)nc32)CC1 | 183 to 184 °C
COc1ccc2c(c1)C(=O)N(c1ccc(C(C)CO)cc1)C2 (centres undefined) | 135 to 138 °C

// below: melting point requested for another molecule
Query block: Given the molecule O=C(N[C@H]1CCN(C(=O)c2cc(C(F)(F)F)cc(C(F)(F)F)c2)[C@H](Cc2ccccc2)C1)c1ccnc2ccccc12 , what is its reported melting point?
Result block: 187 °C

###

experimentalReadout: melting point

CC1(C)CC(=O)c2c(C3CCCCC3)sc(-c3nccs3)c2C1 | 101 to 103 °C
CCCCCCCNC(=O)Nc1ccccc1C(=O)NC1CCN(CCSc2nc(-c3ccccc3)c(-c3ccccc3)[nH]2)CC1 | 160 to 161 °C
CCNC(=O)Nc1ccc2c(=O)n(CCCCN3CC=C(c4ccccc4)CC3)c(=O)[nH]c2c1 | 220 °C
CC1(C)CC(=O)C2=C(C1)NC1=C(C(=O)CC(C)(C)C1)C2c1ccc(Br)c([N+](=O)[O-])c1 | > 300 °C
COc1ccc(CCNC2CCCc3c2ccc(=O)n3C)cc1 (stereo not drawn) | 97 to 99 °C
COc1ccc(C(=O)c2ccccc2C=O)cc1 | 90 to 91 °C
CCc1nn(CCO)c(N)c1Cc1cc(Cl)cc(Cl)c1 | 135 °C

// below: melting point requested for another compound
Query block: Given the compound C#CCN(C(CCn1c(=O)[nH]c2ccccc2c1=O)C(=O)O)S(=O)(=O)c1ccc(Oc2ccccc2)cc1 (stereo not drawn) , what is its reported melting point?
Result block: 194 to 195 °C

###

experimentalReadout: melting point

Cc1cc2c(cc1CSCC(=O)O)OCO2 | 90 to 92 °C
Cn1cc(C(=O)NCCCO)c(Nc2ccc(Br)cc2F)cc1=O | 78 to 83 °C
OCc1nc2n(n1)-c1ccc(Cl)cc1N(c1ccccc1)C2 | 204 to 207 °C
Cc1cc(-c2cc(C(F)F)n3ncc(C(=O)Nc4cccc(S(=O)(=O)NC5CC5)c4)c3n2)ccc1C(F)(F)F | 199 °C
CSC(=NC(=O)NC(C)C)NC(=O)NC(C)C | 125 to 127 °C

Query block: Given the compound C#CC[C@H](c1nc2cc(Cl)ccc2c(=O)n1Nc1ccccc1)N(CCCN)C(=O)c1ccc(C)cc1 , what is its reported melting point?
Result block: 130 to 133 °C

Query block: Param item: CC(C)c1cccc(C(C)C)c1NC(=O)C1c2ccccc2COc2ccc(CO)cc21 (stereo not drawn)
Result block: 157 to 158 °C

Query block: Param item: O=C(O)Cc1ccc(-c2ccc(F)cc2F)c(F)c1
Result block: 145 to 147 °C

Query block: Param item: Cc1nc(N2CCN(Cc3ccc(F)cc3)C2=O)sc1C(=O)NCc1ncco1
Result block: 187 to 189 °C

Query block: Param item: C=CCn1cc(C(=O)O)c(=O)c2cc(F)c(N3CCN(Cc4ccccc4)CC3)cc21
Result block: 209 °C

Query block: Param item: Cc1ccc(S(=O)(=O)n2c3cccc(CCl)c3c3c(C)ccc(C)c32)cc1
Result block: 149 °C

Query block: Param item: O=C(O)C1c2ccccc2COc2ccc(C(F)(F)F)cc21 (stereo not drawn)
Result block: 258 to 260 °C

Query block: Param item: COC(=O)CCCc1cc2cc(C(F)(F)F)ccc2[nH]1
Result block: 115 °C
